- Test system: M. marinum in BV2 microglial cells
- Type: cell-based, Mycobacterium marinum
METRIC: Intracellular infection assays: BV2 / M. marinum
// return just the number, without any unit appended

// solved cases for Intracellular infection assays: BV2 / M. marinum follow
MOLECULE	ASSAY_RESULT
N=C(N)c1ccc(CCN2CCC(c3nc(COCC(F)(F)F)c(-c4ccc(F)cc4)o3)CC2)cc1.O=C(O)C(F)(F)F.O=C(O)C(F)(F)F [GI247341A]	1.21
CCc1nc2ccccc2n1CC(O)COc1cc(C)ccc1Cl (stereo not drawn) [GSK889423A]	1.41
CCc1c(C)nc(-n2nc(C)cc2NC(=O)c2ccccc2SC)[nH]c1=O [GSK1783710A]	1.11
COc1ccc2nc(C)cc(OCC(=O)NCc3ccccc3)c2c1 [GSK463114A]	1.37
CCc1ccc(C2CC(C(F)(F)F)n3ncc(C(=O)NCc4ccc(OC)cc4)c3N2)cc1 (stereo not drawn) [GSK1589673A]	1.29
CC(C)(C)c1ccc(-c2nnc(SCC(=O)OC3CCCCC3)o2)cc1 [GW859039X]	1.04
Cc1cccc(-c2nc(Nc3ccncn3)c3c(C)csc3n2)n1 [GSK163574A]	1.25
c1ccc(CCNc2cc(-c3ccccc3)nc3nncn23)cc1 [GSK1402290A]	1.11

Input CN1CCN(c2cc(-c3ccc(F)cc3)nc(-c3ccncc3)n2)CC1 [GSK276001A] , output reported Intracellular infection assays: BV2 / M. marinum.
1.11
